# System: Pseudomonas aeruginosa
# Experiment: Antibacterial activity against Pseudomonas aeruginosa ATCC 27853 after 24 hr by broth dilution method
# Assay type: functional
# Reported conditions: ATCC 27853, 24 h
Endpoint label: MIC (µg/mL)
Write the answer as a number in µg/mL, unit excluded.

CCCCCCCCCCCCCCCC(=O)NN1C(=O)CSC1c1ccc(Cl)cc1 (stereo unspecified)    12.5

Query block: GET /values?readout=MIC&system=Pseudomonas aeruginosa&item= CCCCCC[C@@H](O)C/C=C\CCCCCCCC(=O)NN1C(=O)CSC1c1ccc(Cl)cc1 (stereo partly specified)
Result block: 50

Query block: Item: CCCCCCCC/C=C\CCCCCCCC(=O)NN1C(=O)CSC1c1ccc(Cl)cc1 (stereo unspecified)
Result block: 50

Query block: Item: C=CCCCCCCCCC(=O)NN1C(=O)CSC1c1ccc(Cl)cc1 (stereo unspecified)
Result block: 12.5

Query block: Item: O=C(N[C@H](CO)[C@H](O)c1ccc([N+](=O)[O-])cc1)C(Cl)Cl
Result block: 12.5

Query block: Item: CCCCC/C=C\CC[C@H](O)CCCCCCCC(=O)NN1C(=O)CSC1c1ccc(Cl)cc1 (stereo partly specified)
Result block: 50

* * *

# diameter of the inhibition zone (DIZ) listing for each entry below
# System: Aspergillus fumigatus
# Experiment: Antifungal activity against Aspergillus fumigatus by disk diffusion method; note: test concentration or dose not given here
# Format: functional
Write the answer as a number in mm, unit excluded.

Query block: For the compound shown here, C=CCCCCCCCCC(=O)NN1C(=O)CSC1c1ccc(Cl)cc1 (stereo unspecified) , give the reported diameter of the inhibition zone (DIZ).
Result block: 22.2

Query block: Item: CCCCCC[C@@H](O)C/C=C\CCCCCCCC(=O)NN1C(=O)CSC1c1ccc(Cl)cc1 (stereo partly specified)
Result block: 20.6

Query block: Item: COC1=CC(=O)C[C@@H](C)[C@]12Oc1c(Cl)c(OC)cc(OC)c1C2=O [GRISEOFULVIN]
Result block: 27

Query block: Item: CCCCCCCCCCCCCCCC(=O)NN1C(=O)CSC1c1ccc(Cl)cc1 (stereo unspecified)
Result block: 22.6

Query block: Item: CCCCCCCC/C=C\CCCCCCCC(=O)NN1C(=O)CSC1c1ccc(Cl)cc1 (stereo unspecified)
Result block: 21.4

Query block: Item: CCCCC/C=C\CC[C@H](O)CCCCCCCC(=O)NN1C(=O)CSC1c1ccc(Cl)cc1 (stereo partly specified)
Result block: 18.7

* * *

# System: Streptococcus pyogenes
# Experiment: Antibacterial activity against Streptococcus pyogenes after 24 hr by broth dilution method
# Type: functional
# MIC listing for each entry below
Write the answer as a number in µg/mL, unit excluded.

Example entries begin here.
CCCCCCCC/C=C\CCCCCCCC(=O)NN1C(=O)CSC1c1ccc(Cl)cc1 (stereo unspecified)    25
CCCCCC[C@@H](O)C/C=C\CCCCCCCC(=O)NN1C(=O)CSC1c1ccc(Cl)cc1 (stereo partly specified)    50

Query block: For the compound shown here, CCCCC/C=C\CC[C@H](O)CCCCCCCC(=O)NN1C(=O)CSC1c1ccc(Cl)cc1 (stereo partly specified) , give the reported MIC.
Result block: 25

Query block: Item: CCCCCCCCCCCCCCCC(=O)NN1C(=O)CSC1c1ccc(Cl)cc1 (stereo unspecified)
Result block: 12.5

Query block: Item: O=C(N[C@H](CO)[C@H](O)c1ccc([N+](=O)[O-])cc1)C(Cl)Cl
Result block: 12.5

Query block: Item: C=CCCCCCCCCC(=O)NN1C(=O)CSC1c1ccc(Cl)cc1 (stereo unspecified)
Result block: 25

* * *

# System: Talaromyces marneffei
# Experiment: Antifungal activity against Talaromyces marneffei incubated for 48 hr followed by subculturing measured after 48 hr
# Type: functional
Endpoint label: MFC (µg/mL)
Write the answer as a number in µg/mL, unit excluded.

Example entries begin here.
CCCCCCCCCCCCCCCC(=O)NN1C(=O)CSC1c1ccc(Cl)cc1 (stereo unspecified)    25
CCCCCC[C@@H](O)C/C=C\CCCCCCCC(=O)NN1C(=O)CSC1c1ccc(Cl)cc1 (stereo partly specified)    100
C=CCCCCCCCCC(=O)NN1C(=O)CSC1c1ccc(Cl)cc1 (stereo unspecified)    25
CCCCCCCC/C=C\CCCCCCCC(=O)NN1C(=O)CSC1c1ccc(Cl)cc1 (stereo unspecified)    50

Query block: For the compound shown here, COC1=CC(=O)C[C@@H](C)[C@]12Oc1c(Cl)c(OC)cc(OC)c1C2=O [GRISEOFULVIN] , give the reported MFC.
Result block: 25

Query block: Item: CCCCC/C=C\CC[C@H](O)CCCCCCCC(=O)NN1C(=O)CSC1c1ccc(Cl)cc1 (stereo partly specified)
Result block: 100

* * *

# Tested on: Klebsiella pneumoniae
# Experiment: Antibacterial activity against Klebsiella pneumoniae clinical isolate after 24 hr by disk diffusion method
# Assay type: functional
Endpoint label: diameter of the inhibition zone (DIZ) (mm)
Write the answer as a number in mm, unit excluded.

Example entries begin here.
CCCCCCCCCCCCCCCC(=O)NN1C(=O)CSC1c1ccc(Cl)cc1 (stereo not given)    21.4
CCCCCC[C@@H](O)C/C=C\CCCCCCCC(=O)NN1C(=O)CSC1c1ccc(Cl)cc1 (stereo not given in full)    14.5
C=CCCCCCCCCC(=O)NN1C(=O)CSC1c1ccc(Cl)cc1 (stereo not given)    18.3
CCCCC/C=C\CC[C@H](O)CCCCCCCC(=O)NN1C(=O)CSC1c1ccc(Cl)cc1 (stereo not given in full)    13.9

Now look at this entry.
Query block: For the compound shown here, CCCCCCCC/C=C\CCCCCCCC(=O)NN1C(=O)CSC1c1ccc(Cl)cc1 (stereo not given) , give the reported diameter of the inhibition zone (DIZ).
Result block: 17.1

* * *

# Tested on: Talaromyces marneffei
# Experiment: Antifungal activity against Talaromyces marneffei after 48 hr
# Assay type: functional
# MIC listing for each entry below
Write the answer as a number in µg/mL, unit excluded.

CCCCCCCCCCCCCCCC(=O)NN1C(=O)CSC1c1ccc(Cl)cc1 (stereo unspecified)    12.5

Query block: For the compound shown here, COC1=CC(=O)C[C@@H](C)[C@]12Oc1c(Cl)c(OC)cc(OC)c1C2=O , give the reported MIC.
Result block: 12.5

Query block: Item: CCCCCCCC/C=C\CCCCCCCC(=O)NN1C(=O)CSC1c1ccc(Cl)cc1 (stereo unspecified)
Result block: 25

Query block: Item: CCCCCC[C@@H](O)C/C=C\CCCCCCCC(=O)NN1C(=O)CSC1c1ccc(Cl)cc1 (stereo partly specified)
Result block: 25

Query block: Item: CCCCC/C=C\CC[C@H](O)CCCCCCCC(=O)NN1C(=O)CSC1c1ccc(Cl)cc1 (stereo partly specified)
Result block: 25

Query block: Item: C=CCCCCCCCCC(=O)NN1C(=O)CSC1c1ccc(Cl)cc1 (stereo unspecified)
Result block: 12.5

* * *

# Tested on: Aspergillus fumigatus
# Experiment: Antifungal activity against Aspergillus fumigatus incubated for 48 hr followed by subculturing measured after 48 hr
# Format: functional
Endpoint label: MFC (µg/mL)
Write the answer as a number in µg/mL, unit excluded.

Example entries begin here.
CCCCCCCC/C=C\CCCCCCCC(=O)NN1C(=O)CSC1c1ccc(Cl)cc1 (stereo unspecified)    50
CCCCC/C=C\CC[C@H](O)CCCCCCCC(=O)NN1C(=O)CSC1c1ccc(Cl)cc1 (stereo partly specified)    100
C=CCCCCCCCCC(=O)NN1C(=O)CSC1c1ccc(Cl)cc1 (stereo unspecified)    25

Query block: For the compound shown here, COC1=CC(=O)C[C@@H](C)[C@]12Oc1c(Cl)c(OC)cc(OC)c1C2=O , give the reported MFC.
Result block: 12.5

Query block: Item: CCCCCC[C@@H](O)C/C=C\CCCCCCCC(=O)NN1C(=O)CSC1c1ccc(Cl)cc1 (stereo partly specified)
Result block: 50

Query block: Item: CCCCCCCCCCCCCCCC(=O)NN1C(=O)CSC1c1ccc(Cl)cc1 (stereo unspecified)
Result block: 25
